# assay_text: qHTS Assay for Lipid Storage Modulators in Drosophila S3 Cells;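 as to cell number change: cells counted by Cell Tracker Red CMTPX staining in the red channel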
# condition_context: BODIPY lipid droplet fluorescence, 18-24 h, cells fed with added oleic acid; measured here: cell count max response
The whole screen tested about 320,000 compounds, of which about 2,100 (0.66%) were called active. Inconclusive results (about 53%) are left out. Many of the other results were omitted from the sample, so actives are more common in it than they were.
For each record, write down the corresponding cell number change.
# unit: % | format: bare number

Task: Give its cell number change value. Item: `O=S(=O)(NCCc1ccccn1)c1ccc(-c2ccccn2)s1`
Result: -6.49

Task: What would you report for `Nc1nc(-c2ccccc2)c(-c2ccc([N+](=O)[O-])cc2)s1` ?
Result: 0.729

Task: What would you report for `O=C(Nc1nncs1)c1ccc2c(c1)OCO2` ?
Result: 11.7

Task: What would you report for `O=C(O)CCCCCCCCCC(=O)c1cccs1` ?
Result: -19.9

Task: What would you report for `O=C(Nc1ccc(S(=O)(=O)N2CCOCC2)cc1)c1ccccc1` ?
Result: -4.33

Task: What would you report for `Nc1c(-c2ccccc2)sc2ccc3ccccc3[n+]12` ?
Result: 7.96

Task: What would you report for `Cc1ccc(NC(=O)CCNS(=O)(=O)c2ccc3[nH]c(=O)oc3c2)c(Cl)c1` ?
Result: -2.47

Task: What would you report for `COc1ccccc1-[n+]1c(C)cc(/C=C2\Sc3ccccc3N2C)cc1C` ?
Result: -16.5

Task: What would you report for `C=CCNC(=S)NNC(=O)c1ccc(OCC)cc1` ?
Result: -9.79

Task: What would you report for `CC(C)C(=O)Nc1cccc(C(=O)Nc2ccc(S(=O)(=O)N3CCOCC3)cc2)c1` ?
Result: -1.62

Task: What would you report for `Cc1ccc2c(c1)S/C(=C/c1ccc[n+](CCO)c1)N2C` ?
Result: 5.41

====

# assay_text: qHTS Assay for Lipid Storage Modulators in Drosophila S3 Cells
# condition_context: BODIPY lipid droplet fluorescence, 18-24 h, cells fed with added oleic acid; series mostly up to 46.1 µM
The campaign covered roughly 320,000 compounds. About 2,100 (0.66%) were called active. About 53% were inconclusive and are not listed. The call rests on the fitted dose curve; in most records, active means well fitted inhibition curve with a large enough effect in the signal ratio, with a control signal flat (not every such curve was filed as active); inconclusive means small, poorly fitted or top-dose-only effect, or effect the other way, or a change in a side signal; inactive means flat fitted curve, though single readings scatter; the % refers to the signal ratio. What follows is part of a selection rich in actives, with near analogues and random picks from the rest.
Valid outcomes are listed here; reply with one: YES (active), NO (inactive)

Task: What did this assay record as the result for `CCCCN(C(=O)C1CCCC1)c1c(N)n(CCC)c(=O)[nH]c1=O` ?
Result: NO

Task: What would you report for `CCCCN(CC)C(=O)c1oc2ccc(S(=O)(=O)N3CCCC3)cc2c1C` ?
Result: YES

Task: What would you report for `COc1ccc(NS(=O)(=O)c2ccc3oc(=O)ccc3c2)cc1` ?
Result: NO

Task: What would you report for CC(Oc1ccc(-c2ccccc2)cc1)C(=O)N1CCOCC1 (configuration not stated) ?
Result: YES

Task: What would you report for Cc1nc2ncnn2c(C)c1CCC(=O)NC(C)CCc1ccco1 (configuration not stated) ?
Result: NO

Task: What would you report for `CCn1c(=O)c(=O)[nH]c2c(=O)oc3ccc(S(=O)(=O)Nc4ccccc4)cc3c21` ?
Result: YES

Task: What would you report for CC(Oc1ccc(C(=O)c2ccccc2)cc1)C(=O)N1CCOCC1 (configuration not stated) ?
Result: NO

Task: What would you report for COc1ccccc1CN1CCN(C(CC(C)C)c2nnnn2Cc2cccs2)CC1 (configuration not stated) ?
Result: NO

Task: What would you report for `c1ccc(-c2nc(-c3nccc4ccccc34)oc2-c2ccccc2)cc1` ?
Result: NO

Task: What would you report for `O=C(O)/C(=C\C(=O)c1ccccc1)Nc1ccccc1` ?
Result: NO

Task: What would you report for Cc1c(C(=O)O)oc2ccc(S(=O)(=O)N3CC(C)CC(C)C3)cc12 (configuration not stated) ?
Result: NO

Task: What would you report for `Cc1ccc(S(=O)(=O)Nc2c(O)c3ccccc3oc2=O)cc1C` ?
Result: NO

Task: What would you report for `CCOC(=O)N1CCN(C(=O)c2oc3ccc(S(=O)(=O)N4CCCCC4)cc3c2C)CC1` ?
Result: NO

Task: What would you report for `Cc1ccc[n+](CC(=O)c2ccc(Br)cc2)c1` ?
Result: YES

Task: What would you report for `COc1nc2ccccc2nc1CCC(=O)O` ?
Result: NO

Task: What would you report for Cc1c(C(=O)NCC2CCCO2)oc2ccc(S(=O)(=O)N3CCCC3)cc12 (configuration not stated) ?
Result: NO

Task: What would you report for `CC(C)CCNC(=O)CN(Cc1ccco1)C(=O)c1snc(C(N)=O)c1N` ?
Result: NO

Task: What would you report for `CCc1ccc(NC(=O)NCC2CCN(Cc3cccc(Cl)c3)CC2)cc1` ?
Result: NO

Task: What would you report for `Cc1noc(NS(=O)(=O)c2ccc(NC(=O)CCn3c(=O)oc4ccccc43)cc2)c1C` ?
Result: NO

Task: What would you report for `CCN(CC)S(=O)(=O)c1cccc(-c2nnc(SCC(=O)c3cc(C)n(C4CC4)c3C)o2)c1` ?
Result: NO

Task: What would you report for `Cc1ccc(S(=O)(=O)NCc2ccccc2)cc1C(=O)N1CCCCCCC1` ?
Result: NO

Task: What would you report for `Cc1c(C(=O)NCCN(C)C)oc2ccc(S(=O)(=O)N3CCCC3)cc12` ?
Result: YES

The measured values listed here are drawn from PubChem BioAssay AID2685.
